# Species on record: Rattus norvegicus
# test_description: Compound was evaluated for in vitro uterotonic activity in the absence of magnesium ions in female wistar rats
# Type: functional
Where a SMILES comes first, the peptide text is derived from it. [ ]: non-standard residue; d: D form. Ac6c = NC1(C(=O)O)CCCCC1
measured_quantity: Activity (IU/mg)
// units = IU/mg; emit number, no label

// known answers, use as guide
# molecule, Activity, IU/mg
data = [
    ("NC(=O)CC[C@H](NC(=O)[C@H](Cc1ccccc1)NC(=O)C1(NC(=O)CCS)CCCCC1)C(=O)N[C@@H](CC(N)=O)C(=O)N[C@@H](CS)C(=O)N1CCC[C@H]1C(=O)N[C@@H](CCCN=C(N)N)C(=O)NCC(N)=O", 0.71),
    ("NC(=O)CC[C@H](NC(=O)C1(NC(=O)[C@H](Cc2ccc(O)cc2)NC(=O)[C@@H](N)CS)CCCCC1)C(=O)N[C@@H](CC(N)=O)C(=O)N[C@@H](CS)C(=O)N1CCC[C@H]1C(=O)N[C@@H](CCCN=C(N)N)C(=O)NCC(N)=O", 0),
    ("NC(=O)CC[C@H](NC(=O)[C@H](Cc1ccccc1)NC(=O)C1(NC(=O)CCS)CCCCC1)C(=O)N[C@@H](CC(N)=O)C(=O)N[C@@H](CS)C(=O)N1CCC[C@H]1C(=O)N[C@H](CCCN=C(N)N)C(=O)NCC(N)=O", 0.31),
    ("CC(C)[C@H](NC(=O)C1(NC(=O)[C@H](Cc2ccc(O)cc2)NC(=O)[C@@H](N)CS)CCCCC1)C(=O)N[C@@H](CC(N)=O)C(=O)N[C@@H](CS)C(=O)N1CCC[C@H]1C(=O)N[C@@H](CCCN=C(N)N)C(=O)NCC(N)=O (H-CY[Ac6c]VNCPRG-NH2)", 0),
    ("CC(C)[C@H](NC(=O)C1(NC(=O)[C@H](Cc2ccc(O)cc2)NC(=O)CCS)CCCCC1)C(=O)N[C@@H](CC(N)=O)C(=O)N[C@@H](CS)C(=O)N1CCC[C@H]1C(=O)N[C@H](CCCN=C(N)N)C(=O)NCC(N)=O", 0),
]

Q. Consider the molecule N=C(N)NCCC[C@H](NC(=O)[C@@H]1CCCN1C(=O)[C@@H]1CSSC[C@H](N)C(=O)N[C@@H](Cc2ccc(O)cc2)C(=O)N[C@@H](Cc2ccccc2)C(=O)N[C@@H](CCC(N)=O)C(=O)N[C@@H](CC(N)=O)C(=O)N1)C(=O)NCC(N)=O and give its measured Activity.
A. 17
